tested on: RXF 393 renal; test: NCI-60 one-dose screen, 48 h (100 = growth as untreated, 0 = no growth, -100 = all killed); conditions: 10 µM unless noted
The panel holds about 83,000 compounds, 20% with a hit somewhere; the sample as a whole holds those more often.
Labelling field: enter Condition met if recorded growth is less than 10%. Enter Condition not met if it equals or exceeds that cut-off.

Examples with answers:
compound	assigned.class
CCN(CC)c1ccc2c(c1)Oc1nc(N)c(C#N)c(N)c1C2Sc1ccc(OC)cc1 (stereo not given)	Condition met
CCCn1c(N)c(C(N)=O)sc1=S	Condition not met
COc1cc(C(=O)Nc2cc(O)c(C/C=C(\C)CCC=C(C)C)c(O)c2)cc2c1O[C@]1(C)CC[C@@H](O)C(C)(C)[C@H]1C2	Condition met
Cc1c(Cl)cccc1NC(=O)c1sc2nc3c(cc2c1N)COCC3	Condition not met
CC(=O)Nc1c(C(=O)Nc2ccccc2)sc2nc3c(cc12)C(OC(C)=O)CCC3 (stereo not given)	Condition not met

Req: Criterion: growth strictly below 10%. Is it met by CCCCN(CCCC)CC(CN(CC)CC)OC(=O)Nc1ccccc1 (stereo not given) ?
Resp: Condition not met

Req: Criterion: growth strictly below 10%. Is it met by C=C1C(=O)O[C@H]2[C@H]1CC/C(C=Nc1c(N)cc(F)cc1Br)=C\CC[C@@]1(C)O[C@@H]21 ?
Resp: Condition not met

Req: Criterion: growth strictly below 10%. Is it met by N#Cc1c(-c2ccc(F)cc2)nc(N=Nc2c(O)[nH]c3ccc(Cl)cc23)nc1N1CCOCC1 ?
Resp: Condition met

Req: Criterion: growth strictly below 10%. Is it met by N#CCNc1ccc(C(=O)O)cc1 ?
Resp: Condition not met

Req: Criterion: growth strictly below 10%. Is it met by C[C@]12CC[C@@H]3c4ccc(O)cc4CC[C@H]3[C@@H]1C[C@H](O)C2 ?
Resp: Condition not met

---

growth overview
system: CCRF-CEM leukemia; experiment: NCI-60 one-dose screen, 48 h (100 = growth as untreated, 0 = no growth, -100 = all killed); conditions: 10 µM unless noted
This is part of a sample that, as a whole, favours compounds with a hit. Of some 83,000 tested, about 20% had one in any assay.
Could you give me the number in %? Just the number is fine.

Would you please look over these solved cases?
smi	growth (%)
Cc1cc(C)nc(NS(=O)(=O)c2ccc(Nc3ccc4c5c(n(CCCN(C)C)c(=O)c4c3)-c3ccccc3C5=O)cc2)n1	42.2
COc1ccc(-c2cc(-c3nnc(SCC(=O)Nc4ccc(C(C)=O)cc4)o3)c3ccccc3n2)cc1	32.7
CC[C@H](Nc1ncnc2nc[nH]c12)c1nc2cccc(CC(=O)c3ccc(C(=O)NO)cc3)c2c(=O)n1-c1ccccc1	90.1
COc1cc(C2=N/C(=C\c3cc4ccccc4nc3Oc3ccccc3)C(=O)N2C(=N)N)cc(OC)c1OC	87.3

Shift focus to the following entry.
Req: # return recorded growth for input CC(=O)c1cc2c(N)c(C(=O)Nc3ccccn3)sc2nc1C
Resp: 102

---

test system: MDA-MB-231 breast; test: NCI-60 one-dose screen, 48 h; conditions: 10 µM unless noted
About 83,000 compounds went through this panel and 20% of them were active in at least one assay; those are over-represented in the sample as a whole. Calls of active or inactive are those of the source. The calls were made as follows: active = growth percent below 10; inactive = the rest.
Outcomes you can answer with include only these: active, inactive

Examples with answers:
compound	target.or.system	assigned.class
O=C(Nc1ccc2ncnc(Nc3ccc(F)c(Cl)c3)c2c1)c1ccccc1	MDA-MB-231 breast	inactive
O=c1[nH]c2ccccc2cc1-c1nc2ccncc2[nH]1	MDA-MB-231 breast	inactive
COc1ccc(-c2cc(-c3nnc(SCC(=O)Nc4ccc(/C(C)=N\O)cc4)n3-c3ccccc3)c3cc(OC)ccc3n2)cc1	MDA-MB-231 breast	inactive
COC(=O)CCc1cc(O)c2c(c1)[C@@H](C(=O)OC)[C@H](c1ccc(O)c(O)c1)O2	MDA-MB-231 breast	inactive
C=CCn1c(SCC(=O)Nc2ccc(C(=O)/C=C/c3cc(OC)c(OC)c(OC)c3)cc2)nnc1-c1ccc(Cl)cc1	MDA-MB-231 breast	inactive

Req: Kindly provide the recorded test outcome for the following compound: COc1ccc(C(=S)c2cc(OC)c(OC)c(OC)c2)cc1OC(=O)CCl
Resp: inactive

Req: Kindly provide the recorded test outcome for the following compound: COc1ccc(-c2nnc(N3CCN(C(=O)CN4CCN(c5ccccc5)CC4)CC3)nc2-c2ccc(OC)cc2)cc1
Resp: inactive

Req: Kindly provide the recorded test outcome for the following compound: C#C[C@@]1(O)[C@@H](CO)O[C@@H](n2cc(-c3ccco3)c3c(N)ncnc32)[C@@H]1O
Resp: inactive

Req: Kindly provide the recorded test outcome for the following compound: O=C1C(Cl)=C(NCCCN(CCCNC2=C(Cl)C(=O)c3ccccc3C2=O)C2=C(Cl)C(=O)c3ccccc3C2=O)C(=O)c2ccccc21
Resp: inactive

Req: Kindly provide the recorded test outcome for the following compound: COc1ccc2nc(-c3ccc(Cl)cc3)cc(-c3nnc(SCC(=O)Nc4ccc(/C(C)=N\O)cc4)o3)c2c1
Resp: inactive

Req: Kindly provide the recorded test outcome for the following compound: COc1cc(N=Nc2cc(S(=O)(=O)O)cc3cc(S(=O)(=O)O)cc(O)c23)c(C)cc1N=Nc1c(S(=O)(=O)O)cc2cc(Nc3ccccc3)ccc2c1O
Resp: inactive

Req: Kindly provide the recorded test outcome for the following compound: Cc1c(Cl)cccc1NC(=O)c1sc2nc3c(cc2c1N)CCCCCC3
Resp: inactive

Req: Kindly provide the recorded test outcome for the following compound: COC(=O)c1cc2c3c(cc(O)c2[nH]1)N(C(=O)C1Cc2cc(OC)c(OC)c(OC)c2N1)CC3CCl (stereo not drawn)
Resp: active

Req: Kindly provide the recorded test outcome for the following compound: O=c1[nH]c(-c2cccc(F)c2)cc2cc(F)ccc12
Resp: inactive

Req: Kindly provide the recorded test outcome for the following compound: Cc1cccc(C)c1NCc1nnc(-c2ccco2)o1
Resp: inactive

Req: Kindly provide the recorded test outcome for the following compound: CC(=O)O[C@@H]1C[C@]2(C)[C@H]3[C@H](O)C[C@@H]4C5=CC(C)(C)CC[C@]5(C)CC[C@@]4(C)[C@]3(C)CC[C@H]2C(C)(C)[C@H]1O
Resp: inactive

Req: Kindly provide the recorded test outcome for the following compound: CCN1CCN(c2ccc(NC(=O)Nc3nc4ccc(-c5ccccc5OC)cc4s3)cc2)CC1
Resp: active

Req: Kindly provide the recorded test outcome for the following compound: N#Cc1nc(-c2ccccc2)oc1S(=O)(=O)NCC(c1ccc(Cl)cc1)N1CCCCC1 (stereo not drawn)
Resp: inactive

---

test system: A549/ATCC NSCLC; assay: NCI-60 one-dose screen, 48 h; conditions: 10 µM unless noted
Compounds without any hit were thinned out: in the full panel of roughly 83,000, 20% have a hit. Active and inactive are the calls of the source. The calls were made as follows: active = growth percent below 10; inactive = the rest.
Outcomes you can answer with include only these: 1 for active, -1 for inactive

Examples with answers:
compound	assigned.class
COc1ccc(-c2[nH]c3ccc(OC)cc3c2C=C(C#N)C#N)cc1	-1
CCCNc1nc(C)[nH]c(=O)c1S	-1
Nc1ccccc1NC(=O)c1ccc(CSc2nc(N3CCOCC3)c3cccn3n2)cc1	-1
O=C1CC23OC(C(O)c4ccccc4N12)C1C(c2ccccc2)=NOC13 (stereo not given)	-1
O=C1c2ccccc2C(=O)c2c1oc1c2c(=O)[nH]c2ccccc21	-1
Nc1ccc(C2=NN(C(=O)c3cc(-c4ccc(Cl)cc4)nc4ccccc34)C(c3ccc(Cl)cc3)C2)cc1 (stereo not given)	-1
CC(=O)ON1CCCC(P(=O)(OCOC(=O)C(C)(C)C)OCOC(=O)C(C)(C)C)C1=O (stereo not given)	1
COc1cc(NC(=O)Nc2cnc(Nc3ccc(N4CCOCC4)cc3)nc2Oc2ccc(F)cc2)cc(OC)c1	-1

Req: Kindly provide the recorded test outcome for the following compound: Cc1ccc(-c2nc(C#N)c(S(=O)(=O)N(C)CCO)o2)cc1
Resp: -1

Req: Kindly provide the recorded test outcome for the following compound: Nc1c(C(=O)Nc2cccc3ccccc23)sc2nc3c(cc12)CCCCC3
Resp: -1

Req: Kindly provide the recorded test outcome for the following compound: NCCCn1c2c(c3cc(-c4ccn[nH]4)ccc3c1=O)C(=O)c1ccccc1-2
Resp: -1

Req: Kindly provide the recorded test outcome for the following compound: COc1ccc2nc(-c3ccc(Cl)cc3)cc(-c3nnc(SC/C(=N/O)c4ccccc4)o3)c2c1
Resp: -1

Req: Kindly provide the recorded test outcome for the following compound: COc1cc(C2=N/C(=C\c3cc4ccccc4nc3Oc3ccccc3)C(=O)N2C(=N)N)cc(OC)c1OC
Resp: -1

Req: Kindly provide the recorded test outcome for the following compound: O=C1CS/C(=N/c2nnc(-c3ccc(O)cc3)s2)N1
Resp: -1

Req: Kindly provide the recorded test outcome for the following compound: C=C1C(=O)O[C@H]2[C@H]1CC/C(C=Nc1c(N)cc(F)cc1Br)=C\CC[C@@]1(C)O[C@@H]21
Resp: -1
